Kindly supply the reported pest or weed control at 35 g/ha values for the records listed here.
System: Key Broadleaf Weed and Crop Species
Experimental protocol: Post-emergent Test II herbicidal activity (Table 15)
Assay type: in vivo
Experimental setup: Helianthus annuus, post-emergence, 336 h, sunflower (Helianthus annuus), 35 g ai/ha, 14 d, read-out: Visual Growth Reduction (%) 14 Days After Application, HELAN

Key Broadleaf Weed and Crop Species data for COC(=O)c1nc(-c2ccc(Cl)c3ccoc23)c(F)c(N)c1Cl ; its pest or weed control at 35 g/ha: 75 to 84%

Per the reported Key Broadleaf Weed and Crop Species data, C=Cc1c(N)nc(-c2ccc3cc[nH]c3c2F)nc1C(=O)O has pest or weed control at 35 g/ha of 0 to 29%

Observed pest or weed control at 35 g/ha, Key Broadleaf Weed and Crop Species, COC(=O)c1nc(-c2ccc(Cl)c3cc[nH]c23)c(F)c(N)c1Cl : 0 to 29%

Tested on Key Broadleaf Weed and Crop Species, the item COC(=O)c1nc(-c2cccc3cc[nH]c23)c(F)c(N)c1Cl showed pest or weed control at 35 g/ha equal to 0 to 29%

Nc1c(F)c(-c2ccc3cc[nH]c3c2)nc(C(=O)O)c1Cl on Key Broadleaf Weed and Crop Species gives pest or weed control at 35 g/ha = 95 to 100%

Form field, pest or weed control at 35 g/ha with Key Broadleaf Weed and Crop Species, item COC(=O)c1nc(-c2cc3occc3cc2F)c(F)c(N)c1Cl : 75 to 84%

COC(=O)c1nc(-c2ccc3cc[nH]c3c2)c(F)c(N)c1Cl on Key Broadleaf Weed and Crop Species gives pest or weed control at 35 g/ha = 85 to 94%

Considering COC(=O)c1nc(-c2ccc3ccn(C)c3c2)c(F)c(N)c1Cl , its pest or weed control at 35 g/ha with Key Broadleaf Weed and Crop Species was recorded as 0 to 29%

The measured pest or weed control at 35 g/ha that COC(=O)c1nc(-c2cccc3sccc23)c(F)c(N)c1Cl showed for Key Broadleaf Weed and Crop Species is 0 to 29%

Result for COC(=O)c1nc(-c2ccc3ccsc3c2)c(C)c(N)c1Cl , tested on Key Broadleaf Weed and Crop Species, pest or weed control at 35 g/ha: 95 to 100%

Key Broadleaf Weed and Crop Species data for Nc1c(F)c(-c2ccc3cn[nH]c3c2)nc(C(=O)O)c1Cl ; its pest or weed control at 35 g/ha: 45 to 59%

Fill in: Key Broadleaf Weed and Crop Species pest or weed control at 35 g/ha for COC(=O)c1nc(-c2ccc3c(ccn3C)c2)c(F)c(N)c1Cl = 0 to 29%

Key Broadleaf Weed and Crop Species pest or weed control at 35 g/ha of COC(=O)c1nc(-c2ccc3cc[nH]c3c2F)c(F)c(N)c1Cl is 95 to 100%

Entry COC(=O)c1nc(-c2cccc3occc23)c(F)c(N)c1Cl ; assay system Key Broadleaf Weed and Crop Species; pest or weed control at 35 g/ha recorded at 45 to 59%

Query Nc1cc(-c2cc3[nH]ccc3cc2F)nc(C(=O)O)c1Cl on Key Broadleaf Weed and Crop Species; pest or weed control at 35 g/ha returned: 0 to 29%

Record COC(=O)c1nc(-c2c(F)cc3cc[nH]c3c2F)cc(N)c1Cl / Key Broadleaf Weed and Crop Species, pest or weed control at 35 g/ha recorded as 0 to 29%

Log: Key Broadleaf Weed and Crop Species, compound COC(=O)c1nc(-c2ccc3cc[nH]c3c2)c(C)c(N)c1Cl , pest or weed control at 35 g/ha = 95 to 100%

The measured pest or weed control at 35 g/ha that COC(=O)c1nc(-c2cc3occc3cc2F)cc(N)c1Cl showed for Key Broadleaf Weed and Crop Species is 30 to 44%

COC(=O)c1nc(-c2ccc3c(N(C)C)noc3c2)c(F)c(N)c1Cl on Key Broadleaf Weed and Crop Species gives pest or weed control at 35 g/ha = 0 to 29%
